Biological target: UniProt:Q05941
Format: binding
Settings: rat brain membranes; Ki alpha4beta2 / Ki alpha7, divided by the alpha7 selectivity of DMXBA (1.95); DMXBA set to 1.00
Rule: RELATIVE A7/A4B2 SELECTIVITY below 4 gives MET. Equal to or above 4 gives NOT MET.

Some solved cases for reference:
CC1CCCC(c2cccnc2)=N1 (racemic) [(S,R)-6-Methyl-Anabaseine, 6-methyl-anabaseine]
MET
COc1ccc(C=C2CCC(C)N=C2c2cccnc2)c(OC)c1 (stereo not drawn) [Most selective enantiomer of 6-Methyl-DMXBA]
NOT MET
COc1cc(O[C@@H]2O[C@H](C(=O)O)[C@@H](O)[C@H](O)[C@H]2O)ccc1C=C1CCCN=C1c1cccnc1
NOT MET

[in] Identify whether the compound COc1ccc(C=C2CCC(C)N=C2c2cccnc2)c(OC)c1 (racemic) [(S,R)-6-Methyl-DMXBA] records RELATIVE A7/A4B2 SELECTIVITY below 4.
[out] MET

[in] API: query returns whether the compound falls strictly under 4 in RELATIVE A7/A4B2 SELECTIVITY. Query: COc1ccc(C=C2CC(C)CN=C2c2cccnc2)c(OC)c1 (stereo not drawn) [Most selective enantiomer of 5-Methyl-DMXBA]
[out] MET

[in] Find out if reported RELATIVE A7/A4B2 SELECTIVITY for COc1ccc(C=C2C(c3cccnc3)=NCCC2C)c(OC)c1 (stereo not drawn) [Most selective enantiomer of 4-Methyl-DMXBA] is less than 4
[out] NOT MET

[in] Item COc1ccc(C=C2CC(C)CN=C2c2cccnc2)c(OC)c1 (racemic) [(S,R)-5-Methyl-DMXBA] : RELATIVE A7/A4B2 SELECTIVITY beneath 4, strictly?
[out] MET

[in] Record CC1CCN=C(c2cccnc2)C1 (racemic) [(S,R)-4-Methyl-Anabaseine, 4-Methyl-anabaseine] : is its RELATIVE A7/A4B2 SELECTIVITY strictly below 4?
[out] MET

---

Molecular target: α7 nAChR (Rattus norvegicus, UniProt Q05941)
Sequence (Q05941 23-502): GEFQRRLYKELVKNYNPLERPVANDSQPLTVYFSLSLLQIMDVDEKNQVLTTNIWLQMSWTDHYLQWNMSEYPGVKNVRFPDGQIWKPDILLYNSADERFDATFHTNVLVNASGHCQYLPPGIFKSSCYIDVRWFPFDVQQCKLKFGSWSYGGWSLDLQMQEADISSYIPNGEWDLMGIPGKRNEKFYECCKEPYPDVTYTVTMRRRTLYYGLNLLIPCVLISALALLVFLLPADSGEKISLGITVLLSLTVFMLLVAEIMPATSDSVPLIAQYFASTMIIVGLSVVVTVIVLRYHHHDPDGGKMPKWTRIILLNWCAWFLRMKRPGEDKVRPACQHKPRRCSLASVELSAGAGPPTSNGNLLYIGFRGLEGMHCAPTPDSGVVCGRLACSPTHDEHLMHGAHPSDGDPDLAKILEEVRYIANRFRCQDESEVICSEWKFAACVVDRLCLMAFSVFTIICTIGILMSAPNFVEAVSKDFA
Format: binding
Details: rat brain membranes, [125I]alpha-bungarotoxin, n = 2
Where a name gives a salt, the structure may show the parent alone.
MEASURED_METRIC: Ki
Mention the unit after the number when you answer.

C(=C1/CCCN=C1c1cccnc1)/c1ccc2c(c1)OCCO2
0.2 µM

[in] Find the measured Ki of C(=C1/CCCN=C1c1cccnc1)/c1ccc2c(c1)OCO2 and report it.
[out] 0.23 µM

[in] For the compound C(=C1/CCCN=C1c1cccnc1)/c1cc2ccccc2o1 , give its reported Ki.
[out] 0.15 µM

[in] // fetch Ki given entry COc1ccc2cc(/C=C3\CCCN=C3c3cccnc3)ccc2c1 [dihydrochloride]
[out] 0.37 µM

---

Molecular target: α7 nAChR (Rattus norvegicus)
Assay type: binding
Settings: rat brain membranes; Ki alpha4beta2 / Ki alpha7, divided by the alpha7 selectivity of DMXBA (1.95); DMXBA set to 1.00
Quick rule for you: RELATIVE A7/A4B2 SELECTIVITY at 0.7 or higher means 1.0, lower means 0.0.

Examples from the recorded data:
COc1ccc(C=C2C(c3cccnc3)=NCCC2C)c(OC)c1 (racemic) [(S,R)-4-Methyl-DMXBA]
1.0
COc1ccc(C=C2CCC(C)N=C2c2cccnc2)c(OC)c1 (stereo not drawn) [Least selective enantiomer of 6-Methyl-DMXBA]
1.0

[in] Is the recorded value of RELATIVE A7/A4B2 SELECTIVITY equal to or greater than 0.7 for this compound? CC1CCC(c2cccnc2)=NC1 (racemic) [(S,R)-5-Methyl-Anabaseine, 5-Methyl-Anabaseine]
[out] 0.0

[in] Reported RELATIVE A7/A4B2 SELECTIVITY reaches at least 0.7 for COc1ccc(/C=C2\CCCN=C2c2cccnc2)c(OC)c1 [DMXBA (GTS-21), reference compound] ?
[out] 1.0

[in] Confirm if RELATIVE A7/A4B2 SELECTIVITY reported for the compound COc1ccc(C=C2CC(C)CN=C2c2cccnc2)c(OC)c1 (stereo not drawn) [Least selective enantiomer of 5-Methyl-DMXBA] is 0.7 or above.
[out] 1.0
